# experimental-protocol: Phase solubility, shake-flask method with UV spectrophotometry
# Type: physicochemical
# conditions: aqueous buffer (shake-flask), 37 °C, pH 7.4, aqueous with cosolvent or surfactant or cyclodextrin, thermodynamic from solid, buffer pH 7.4, 4.0 w/v% F-127, 310.15 K; value is S×10^4; read-out: Solubility SUMF·104

compound: CCOC(=O)c1c(CSc2ccccc2)n(C)c2cc(Br)c(O)c(CN(C)C)c12 [UMF]
output-unit: µM
solubility at 3 days: 393

----------
# experimental-protocol: Phase solubility, shake-flask method with UV spectrophotometry
# Format: physicochemical
# conditions: aqueous buffer (shake-flask), 37 °C, pH 7.4, aqueous with cosolvent or surfactant or cyclodextrin, thermodynamic from solid, buffer pH 7.4, 7.0 w/v% F-127, 310.15 K; value is S×10^4; read-out: Solubility SUMF·104
measured-attribute: solubility at 3 days (µM)

molecule: CCOC(=O)c1c(CSc2ccccc2)n(C)c2cc(Br)c(O)c(CN(C)C)c12 [UMF]
measured-attribute: solubility at 3 days
output-unit: µM
recorded-value: 696

----------
# experimental-protocol: Phase solubility, shake-flask method with UV spectrophotometry
# Type: physicochemical
# conditions: aqueous buffer (shake-flask), 37 °C, pH 7.4, aqueous with cosolvent or surfactant or cyclodextrin, thermodynamic from solid, buffer pH 7.4 +10% EtOH, 1.5 w/v% F-127, 310.15 K; value is S×10^4; read-out: Solubility SUMF·104
measured-attribute: solubility at 3 days (µM)

compound: CCOC(=O)c1c(CSc2ccccc2)n(C)c2cc(Br)c(O)c(CN(C)C)c12 [UMF]
output-unit: µM
recorded-value: 194

----------
# experimental-protocol: Phase solubility, shake-flask method with UV spectrophotometry
# Type: physicochemical
# conditions: aqueous buffer (shake-flask), 37 °C, pH 7.4, aqueous with cosolvent or surfactant or cyclodextrin, thermodynamic from solid, buffer pH 7.4 +10% EtOH, 4.0 w/v% F-127, 310.15 K; value is S×10^4; read-out: Solubility SUMF·104

compound: CCOC(=O)c1c(CSc2ccccc2)n(C)c2cc(Br)c(O)c(CN(C)C)c12 [UMF]
output-unit: µM
solubility at 3 days: 477

----------
# experimental-protocol: Phase solubility, shake-flask method with UV spectrophotometry
# Type: physicochemical
# conditions: aqueous buffer (shake-flask), 37 °C, pH 7.4, aqueous with cosolvent or surfactant or cyclodextrin, thermodynamic from solid, 7.0% F-127 + 20% EtOH, buffer pH 7.4, 310.15 K; read-out: Maximum solubility value
measured-attribute: solubility at 3 days

structure-as-smiles: CCOC(=O)c1c(CSc2ccccc2)n(C)c2cc(Br)c(O)c(CN(C)C)c12
recorded-value: 1180 µM

----------
# experimental-protocol: Phase solubility, shake-flask method with UV spectrophotometry
# Format: physicochemical
# conditions: aqueous buffer (shake-flask), 37 °C, pH 2, aqueous with cosolvent or surfactant or cyclodextrin, thermodynamic from solid, Solubility SUMF·103, buffer pH 2.0, 1.5 w/v% F-127, 310.15 K; value is S×10^3; heading: Solubility SUMF·103
measured-attribute: solubility at 3 days (µM)

structure-as-smiles: CCOC(=O)c1c(CSc2ccccc2)n(C)c2cc(Br)c(O)c(CN(C)C)c12
output-unit: µM
recorded-value: 2050

----------
# experimental-protocol: Phase solubility, shake-flask method with UV spectrophotometry
# Format: physicochemical
# conditions: aqueous buffer (shake-flask), 37 °C, pH 7.4, aqueous with cosolvent or surfactant or cyclodextrin, thermodynamic from solid, buffer pH 7.4 +10% EtOH, 0 w/v% F-127, 310.15 K; value is S×10^4; read-out: Solubility SUMF·104

structure-as-smiles: CCOC(=O)c1c(CSc2ccccc2)n(C)c2cc(Br)c(O)c(CN(C)C)c12
solubility at 3 days (µM): 18

----------
# experimental-protocol: Phase solubility, shake-flask method with UV spectrophotometry
# Type: physicochemical
# conditions: aqueous buffer (shake-flask), 37 °C, pH 2, aqueous with cosolvent or surfactant or cyclodextrin, thermodynamic from solid, Solubility SUMF·103, buffer pH 2.0, 4.0 w/v% F-127, 310.15 K; value is S×10^3; heading: Solubility SUMF·103

structure-as-smiles: CCOC(=O)c1c(CSc2ccccc2)n(C)c2cc(Br)c(O)c(CN(C)C)c12
solubility at 3 days / mM: 3.99

----------
# experimental-protocol: Phase solubility, shake-flask method with UV spectrophotometry
# Type: physicochemical
# conditions: aqueous buffer (shake-flask), 37 °C, pH 7.4, aqueous with cosolvent or surfactant or cyclodextrin, thermodynamic from solid, buffer pH 7.4 +20% EtOH, 1.5 w/v% F-127, 310.15 K; value is S×10^4; read-out: Solubility SUMF·104
measured-attribute: solubility at 3 days (µM)

molecule: CCOC(=O)c1c(CSc2ccccc2)n(C)c2cc(Br)c(O)c(CN(C)C)c12 [UMF]
recorded-value: 276

----------
# experimental-protocol: Phase solubility, shake-flask method with UV spectrophotometry
# Assay type: physicochemical
# conditions: aqueous buffer (shake-flask), 37 °C, pH 7.4, aqueous with cosolvent or surfactant or cyclodextrin, thermodynamic from solid, buffer pH 7.4 +10% EtOH, 7.0 w/v% F-127, 310.15 K; value is S×10^4; read-out: Solubility SUMF·104

structure-as-smiles: CCOC(=O)c1c(CSc2ccccc2)n(C)c2cc(Br)c(O)c(CN(C)C)c12
solubility at 3 days: 806 µM
